Assay: Cytotoxicity against HEK293 cells incubated for 72 hrs by MTT assay
Assay type: toxicity, cell-based
Settings: human
Recorded IC50 at 72 h values for a group of compounds are listed next.
The reply should be a number in µM, with the unit left off.

Q. Please give measured IC50 at 72 h of the following entry: Cc1ccc(S(=O)(=O)N[C@H](CCC(=O)NCc2ccccc2)C(=O)O)cc1
A. 293

----------
Experiment: Cytotoxicity against HEK293 cells incubated for 72 hrs by MTT assay
Type: toxicity, cell-based
Conditions: human
Quick rule for you: IC50 at 72 h under 300 µM gets True, anything else gets False.

Before answering, review these 4 worked examples.
CC(C)NC(=O)CC[C@@H](NS(=O)(=O)c1ccc([N+](=O)[O-])cc1)C(=O)O	True
CCNC(=O)CC[C@@H](NS(=O)(=O)c1ccc(C)cc1)C(=O)O	False
CCCCNC(=O)CC[C@@H](NS(=O)(=O)c1ccc(C)cc1)C(=O)O	False
CC(C)CNC(=O)CC[C@@H](NS(=O)(=O)c1ccc([N+](=O)[O-])cc1)C(=O)O	True

Q. Could you please tell me whether IC50 at 72 h recorded for CNC(=O)CC[C@@H](NS(=O)(=O)c1ccc(C)cc1)C(=O)O is less than 300 µM?
A. True

Q. Could you please tell me whether IC50 at 72 h recorded for CCCCCNC(=O)CC[C@@H](NS(=O)(=O)c1ccc(C)cc1)C(=O)O is less than 300 µM?
A. False

Q. Could you please tell me whether IC50 at 72 h recorded for CCCCNC(=O)CC[C@@H](NS(=O)(=O)c1ccc([N+](=O)[O-])cc1)C(=O)O is less than 300 µM?
A. False

----------
Target: Macrophage metalloelastase (Homo sapiens, UniProt P39900)
Sequence (P39900 whole entry): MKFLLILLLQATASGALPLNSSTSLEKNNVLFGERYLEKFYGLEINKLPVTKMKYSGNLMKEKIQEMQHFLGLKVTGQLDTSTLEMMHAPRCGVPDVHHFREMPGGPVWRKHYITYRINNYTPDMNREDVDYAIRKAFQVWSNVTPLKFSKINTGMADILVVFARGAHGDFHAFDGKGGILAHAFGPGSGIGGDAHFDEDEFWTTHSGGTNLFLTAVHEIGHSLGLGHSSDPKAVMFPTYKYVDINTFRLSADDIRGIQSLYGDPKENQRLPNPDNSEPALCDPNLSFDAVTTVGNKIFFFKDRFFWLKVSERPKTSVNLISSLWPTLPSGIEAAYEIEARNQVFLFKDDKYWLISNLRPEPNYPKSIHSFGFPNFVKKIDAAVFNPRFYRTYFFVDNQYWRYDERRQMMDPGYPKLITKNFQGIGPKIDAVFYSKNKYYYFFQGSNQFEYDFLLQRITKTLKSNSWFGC
Assay: Inhibition of MMP-12 (unknown origin)
Experimental endpoint: IC50 (nM)
The reply should be a number in nM, with the unit left off.

Q. Please give measured IC50 of the following entry: Cc1ccc(S(=O)(=O)N[C@H](CCC(=O)NCc2ccccc2)C(=O)O)cc1
A. 1240

----------
Test: Cytotoxicity against HEK293 cells incubated for 72 hrs by MTT assay
Format: toxicity, cell-based
Settings: human
Recorded IC50 at 72 h values for a group of molecules are listed next.
The reply should be a number in µM, with the unit left off.

Cc1ccc(S(=O)(=O)N[C@H](CCC(=O)NC(C)C)C(=O)O)cc1	347
Cc1ccc(S(=O)(=O)N[C@H](CCC(N)=O)C(=O)O)cc1	279
NC(=O)CC[C@@H](NS(=O)(=O)c1ccc([N+](=O)[O-])cc1)C(=O)O	173
CNC(=O)CC[C@@H](NS(=O)(=O)c1ccc([N+](=O)[O-])cc1)C(=O)O	417
CCNC(=O)CC[C@@H](NS(=O)(=O)c1ccc([N+](=O)[O-])cc1)C(=O)O	145

Q. Please give measured IC50 at 72 h of the following entry: CCCCCNC(=O)CC[C@@H](NS(=O)(=O)c1ccc([N+](=O)[O-])cc1)C(=O)O
A. 254

Q. Please give measured IC50 at 72 h of the following entry: Cc1ccc(S(=O)(=O)N[C@H](CCC(=O)NCC(C)C)C(=O)O)cc1
A. 645

Q. Please give measured IC50 at 72 h of the following entry: O=C(CC[C@@H](NS(=O)(=O)c1ccc([N+](=O)[O-])cc1)C(=O)O)NCc1ccccc1
A. 114

Hello, the source for this data is ChEMBL document CHEMBL5523721, in case you need it.
